- assayed.target: Glutamate NMDA receptor (Rattus norvegicus) (UniProt P35439+Q00959+Q00960+Q00961+Q62645+Q8VHN2+Q9R1M7)
- test.method.notes: Displacement of [3H]glycine from Gly/NMDA receptor in rat cortical synaptic membrane at 100 uM
- Type: cell membranes
measured.parameter: inhibition (%)

INSERT INTO results (compound, value_unit, test_value) VALUES
  ('O=C(O)CCC(=O)Nc1cc2c(=O)n(O)c(=O)[nH]c2cc1Cl', '%', 8);

(a) O=C(O)C(CCO)On1c(=O)[nH]c2cc(Cl)ccc2c1=O (racemic)
(b) N[C@@H](Cn1ccc(=O)n(Cc2ccccc2C(=O)O)c1=O)C(=O)O
Inquiry: Lab note: record which item had the higher inhibition, a or b . Reply briefly: the label of your chosen item.
Reply text: a

(I) O=C1OCCC1On1c(=O)[nH]c2cc(Cl)ccc2c1=O (racemic)
(II) CCOC(=O)COn1c(=O)[nH]c2cc(Cl)ccc2c1=O
(III) COC(=O)c1ccc(C(=O)Nc2cc3c(=O)n(O)c(=O)[nH]c3cc2Cl)cc1
Inquiry: // smallest inhibition at index 0, largest at the end API: response body holds the labels in the requested order.
Reply text: II, III, I
(II: 0%, III: 10%, I: 37%)

(A) O=C(O)c1ccn(-c2cc3c(=O)n(O)c(=O)[nH]c3cc2Cl)c1
(B) O=C(NCc1ccccc1)Nc1cc2c(=O)n(O)c(=O)[nH]c2cc1Cl
Inquiry: Identify the item whose inhibition is the smaller number: A or B Mark your answer with the label of the selected entry.
Reply text: B
(B: 27%, A: 44%)

====

- test.method.notes: Displacement of [3H]KA from low affinity KA receptor in rat cortical membrane
- Assay type: cell membranes
pIC50: −log10 of the molar value.
measured.parameter: pIC50

(P) N[C@@H](Cn1ccc(=O)n(Cc2ccccc2C(=O)O)c1=O)C(=O)O
(Q) O=C(O)c1ccccc1C(=O)Nc1cc2c(=O)n(O)c(=O)[nH]c2cc1Cl
Inquiry: Lab log: flag the item ( P or Q ) with the smaller pIC50 figure. Let me know the label of the one you choose.
Reply text: P

====

- test.method.notes: Displacement of [3H]KA from high affinity KA receptor in rat cortical membrane
- Format: cell membranes
measured.parameter: IC50 (µM)

As a guide, the following entries are already answered.
INSERT INTO assay_data (compound, measured_parameter, value_unit, test_value) VALUES
  ('O=C(O)CCC(=O)Nc1cc2c(=O)n(O)c(=O)[nH]c2cc1Cl', 'IC50', 'µM', 5.4),
  ('O=c1[nH]c2cc(Cl)c(-n3cnnc3)cc2c(=O)n1O', 'IC50', 'µM', 7),
  ('O=c1ccn(-c2cc3c(=O)n(O)c(=O)[nH]c3cc2Cl)cc1', 'IC50', 'µM', 4.1),
  ('CN1CCc2c(-c3ccc(S(=O)(=O)N(C)C)cc3)cc3c(c2C1)NC(=O)/C3=N\OC(CCO)C(=O)O (centres undefined)', 'IC50', 'µM', 81),
  ('O=c1[nH]c2cc(Cl)c(-n3cccc3)cc2c(=O)n1O', 'IC50', 'µM', 8.2),
  ('O=C(O)c1ccc(C(=O)Nc2cc3c(=O)n(O)c(=O)[nH]c3cc2Cl)cc1', 'IC50', 'µM', 12.9),
  ('O=C(O)c1cccc(C(=O)Nc2cc3c(=O)n(O)c(=O)[nH]c3cc2Cl)c1', 'IC50', 'µM', 100),
  ('N[C@@H](Cn1ccc(=O)n(Cc2ccccc2C(=O)O)c1=O)C(=O)O', 'IC50', 'µM', 46),
  ('O=C(O)c1ccn(-c2cc3c(=O)n(O)c(=O)[nH]c3cc2Cl)c1', 'IC50', 'µM', 13);

(I) O=C(O)c1ccccc1C(=O)Nc1cc2c(=O)n(O)c(=O)[nH]c2cc1Cl
(II) O=c1[nH]c2cc(Cl)ccc2c(=O)n1O
(III) O=C1C=CCN1c1cc2c(=O)n(O)c(=O)[nH]c2cc1Cl
(IV) O=C(Nc1cc2c(=O)n(O)c(=O)[nH]c2cc1Cl)c1ccccc1
(V) O=Cc1ccn(-c2cc3c(=O)n(O)c(=O)[nH]c3cc2Cl)c1
Inquiry: Rank items: key IC50, increasing. Returns: the labels arranged in the requested order.
Reply text: I, V, III, IV, II
